Listed molecules paired with reported pIC50
- assay.target: recombinant human B1 receptors (Homo sapiens)
- Sequence (P46663 1-353): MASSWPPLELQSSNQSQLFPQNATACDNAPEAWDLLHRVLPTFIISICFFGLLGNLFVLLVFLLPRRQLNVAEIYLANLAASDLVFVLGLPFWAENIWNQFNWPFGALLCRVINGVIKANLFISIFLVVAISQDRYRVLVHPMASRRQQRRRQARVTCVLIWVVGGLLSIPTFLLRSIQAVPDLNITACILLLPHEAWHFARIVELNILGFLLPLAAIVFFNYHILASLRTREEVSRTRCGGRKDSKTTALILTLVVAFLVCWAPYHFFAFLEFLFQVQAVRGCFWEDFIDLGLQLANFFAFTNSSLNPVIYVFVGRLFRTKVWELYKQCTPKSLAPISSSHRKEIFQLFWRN
- experimental.details: Antagonist potency by measurement of cytosolic calcium ion concentration in CHO-B1 cells (agonist LysDABK)
- applied.conditions: inhibition of LysDABK (EC80)-evoked [Ca2+]i elevation, fluo-4, read-out: B1 func.
pIC50: −log10 of the molar value. Counter-ions that a name gives are not always drawn.

Example molecules with recorded pIC50:
molecule	assay.target	value.type	endpoint.result
COc1cccc2c1-c1ccccc1N(S(=O)(=O)c1ccc(Cl)c(Cl)c1)C2CC(=O)NCCc1ccc(C2=NCCN2)cc1 (stereo not drawn) [Example 17, hydrochloride]	recombinant human B1 receptors (Homo sapiens)	pIC50	> 7.00
COc1cccc2c1-c1ccccc1N(S(=O)(=O)c1ccc(Cl)c(Cl)c1)C2CC(=O)N[C@H]1CC[C@H](CCN2CCCC2)CC1 (stereo partly drawn)	recombinant human B1 receptors (Homo sapiens)	pIC50	> 7.00
CC(C)N1CCN(C(=O)C2CCN(S(=O)(=O)c3ccc(NCC(c4ccccc4)c4ccccc4)c(C(=O)N4CCOCC4)c3)CC2)CC1 [Example 70002460, reference compound]	recombinant human B1 receptors (Homo sapiens)	pIC50	6.30 to 7.00
O=C(C[C@@H]1C(=O)Nc2ccccc2N1S(=O)(=O)c1ccc(Cl)c(Cl)c1)NCCc1ccc(C2=NCCN2)cc1 [Example 70004287, reference compound]	recombinant human B1 receptors (Homo sapiens)	pIC50	> 7.00
Cc1ccc(S(=O)(=O)N2c3ccccc3-c3ccccc3C2CC(=O)NCCc2ccc(C3=NCCN3)cc2)cc1 (stereo not drawn) [Example 14, hydrochloride]	recombinant human B1 receptors (Homo sapiens)	pIC50	> 7.00

# evaluate next
Short answer for O=C(CC1c2cc(F)cc(F)c2-c2ccccc2N1S(=O)(=O)c1ccc(Cl)c(Cl)c1)NCCc1ccc(C2=NCCN2)cc1 (stereo not drawn) [Example 18, hydrochloride] : pIC50 was > 7.00

----------
- assay.target: recombinant human B1 receptors (Homo sapiens)
- experimental.details: Antagonist potency by measurement of cytosolic calcium ion concentration in CHO-B1 cells (agonist LysDABK)
- applied.conditions: inhibition of LysDABK (EC80)-evoked [Ca2+]i elevation, fluo-4, read-out: B1 func.
Where a name gives a salt, the structure may show the parent alone.
value.type: IC50

Example compounds with recorded IC50:
compound	IC50
O=C(CC1c2ccccc2-c2ccccc2N1S(=O)(=O)c1ccc(Cl)c(Cl)c1)Nc1ccc(N2CCC(N3CCCCC3)CC2)cc1 (stereo not drawn) [Example 8]	100 to 500 nM
O=C(CC1c2ccccc2-c2ccccc2N1S(=O)(=O)c1ccc(Cl)c(Cl)c1)N[C@H]1CC[C@H](CCN2CCCC2)CC1 (stereo partly drawn) [Example 4]	< 100 nM
O=C(CC1c2ccccc2-c2ccccc2N1S(=O)(=O)c1ccc(Cl)c(Cl)c1)N1CCC(Cc2ccc(C3=NCCCN3)cc2)CC1 (stereo not drawn) [Example 6]	< 100 nM
Cc1cc(C)c(S(=O)(=O)N2c3ccccc3-c3ccccc3C2CC(=O)NCCc2ccc(C3=NCCN3)cc2)c(C)c1 (stereo not drawn) [Example 15, hydrochloride]	< 100 nM

Short answer for O=C(CC1c2ccccc2-c2ccccc2N1S(=O)(=O)c1ccc(Cl)c(Cl)c1)NCCc1ccc(C2=NCCN2)cc1 (stereo not drawn) [Example 2, hydrochloride] : IC50 was < 100 nM

Short answer for O=C(CC1c2ccccc2-c2ccccc2N1S(=O)(=O)c1ccc(Cl)c(Cl)c1)NCCN1CCN(c2ccncc2)CC1 (stereo not drawn) [Example 3] : IC50 was < 100 nM
